Target: cardiomyocytes
Test: Drug screening on bare and embedded PDMS cantilevers (beat displacement)
Format: cell-based, rat
Conditions: cardiomyocytes cultured on embedded PDMS thin film
measured property: IC50 (nM)
Give the quantity in nM, number only.

// query IC50 value for entry Cc1ccc2c(c1)C(=O)C1(O)CCN(c3ccccc3)C1=N2 (stereo not shown)
521

====

Target: cardiomyocytes
Assay: Drug screening on bare and embedded PDMS cantilevers (beat displacement)
Format: cell-based, rat
Details: cardiomyocytes cultured on bare PDMS thin film
measured property: pIC50
Lab note — pIC50 values are minus log10 of concentrations in M.

Return reported pIC50; argument: Cc1ccc2c(c1)C(=O)C1(O)CCN(c3ccccc3)C1=N2 (stereo not shown)
6.76

====

Tested on: human-induced pluripotent stem cell-cardiomyocytes (hiPSC-CMs)
Assay: Comparison of NRVM and hiPSC-CM in drug test (hiPSC-CM)
Format: cell-based
Conditions: (b) of FIG. 20A; NRVM vs hiPSC-CM comparison, cell type of the value not stated
measured property: IC50

# lookup: IC50 of Cc1ccc2c(c1)C(=O)C1(O)CCN(c3ccccc3)C1=N2 (stereo not shown) [blebbistatin]
~1000 nM
